Reported Tm values are given for each entry in this list.
test: melting temperature; melt of duplexes; conditions: sodium 0.0675 M; strand 1 µM

SUBSTANCE	Tm, °C
CGACGTGCTTCATGTGCTG+CAGCACATAACGCACGTCG ((((((((.(.((((((((+)))))))).).))))))))	49.3
CGACGTGCGATATGTGCTG+CAGCACATCTGGCACGTCG ((((((((.(.((((((((+)))))))).).))))))))	50
CGACGTGCCGAATGTGCTG+CAGCACATTGTGCACGTCG ((((((((..(((((((((+)))))))))..))))))))	50.1
